Entry source: ChEMBL document CHEMBL1152083

species on record: Mus musculus; assay: In vitro immunosuppressive activity by splenocyte mitogenesis assay in spleen cells from BDF1 female mice at 1 pM to 10 uM concentration; not active; format: functional, cell-based
Active and inactive are the calls of the source. The rule behind the calls is not given here.

molecule: COCC(=O)[C@H](C)C[C@H](C)\C=C/C=C/C=C(\C)[C@H](C[C@@H]1CC[C@@H](C)[C@](O)(C(=O)C(=O)N2CCCC[C@H]2C(=O)OCc2ccccc2)O1)OC
Activity: inactive

molecule: COCC(=O)[C@H](C)C[C@H](C)\C=C/C=C/C=C(\C)[C@H](C[C@@H]1CC[C@@H](C)[C@](O)(C(=O)C(=O)N2CCCC[C@H]2C(=O)OC/C=C/c2ccccc2)O1)OC
Activity: inactive

molecule: COCC(=O)[C@H](C)C[C@H](C)\C=C/C=C/C=C(\C)[C@H](C[C@@H]1CC[C@@H](C)[C@](O)(C(=O)C(=O)N2CCCC[C@H]2C(=O)NCc2ccccc2)O1)OC
Activity: inactive

molecule: COCC(=O)[C@H](C)C[C@H](C)\C=C/C=C/C=C(\C)[C@H](C[C@@H]1CC[C@@H](C)[C@](O)(C(=O)C(=O)N2CCCC[C@H]2C(=O)OC(C)c2ccccc2)O1)OC (some centres undefined)
Activity: inactive
